Source of measurements: PubChem BioAssay AID778

Provide the reported inhibition of each item.
Biological target: Cytochrome P450 2C19 (Homo sapiens) (UniProt P33261)
Sequence (P33261 whole entry, looked up): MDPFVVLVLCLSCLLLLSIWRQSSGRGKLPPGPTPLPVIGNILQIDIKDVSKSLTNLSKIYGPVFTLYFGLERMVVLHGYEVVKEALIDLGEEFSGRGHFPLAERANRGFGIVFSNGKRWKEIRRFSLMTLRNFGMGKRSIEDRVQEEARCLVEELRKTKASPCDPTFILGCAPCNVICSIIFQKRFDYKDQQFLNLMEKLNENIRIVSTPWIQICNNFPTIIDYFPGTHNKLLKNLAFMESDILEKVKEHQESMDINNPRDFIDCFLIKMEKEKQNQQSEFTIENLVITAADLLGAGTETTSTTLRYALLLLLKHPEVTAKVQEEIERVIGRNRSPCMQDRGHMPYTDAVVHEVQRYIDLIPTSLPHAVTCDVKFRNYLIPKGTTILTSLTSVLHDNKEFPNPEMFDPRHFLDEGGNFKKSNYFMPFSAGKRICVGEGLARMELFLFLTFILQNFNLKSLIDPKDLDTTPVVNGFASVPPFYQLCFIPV
Assay: blockers of cytochrome P450 2C19 activity – biochemical, luminescence, ADME assay, primary screen (AID 778);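 further: plate controls were negative control wells for no effect and 2.5 mM tranylcypromine positive control for full effect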
Settings: CYP2C19 Supersomes, luciferin-H EGE luminescence, 30 min; at 5 µM; stronger effect = higher value
Among all 96,000 compounds or so, about 20,000 (21%) were called active. The list is a sample of the results.
Give bare numbers, in %.

Can you give me inhibition for all of these, one by one?
1. CC(Oc1ccc(Cl)cc1)c1ccnn1S(C)(=O)=O (configuration not stated)
2. COc1ccc(Oc2coc3cc(OC(=O)c4cncc(Br)c4)ccc3c2=O)cc1
3. CCC(Oc1ccccc1)C(=O)NCc1cccnc1 (configuration not stated)
4. CC(=O)c1cc2c(cc1N)OCO2
5. CC(Oc1ccc(Cl)cc1)C(=O)Nc1ncccn1 (configuration not stated)
6. COc1ccc(N2C(=O)CCC(C(=O)Nc3ccccn3)C2c2ccc(OC)c(OC)c2)cc1 (configuration not stated)

69.5
-9.2
67.7
5.3
30
28.2

Can you give me inhibition for all of these, one by one?
1. O=C(COC(=O)CCC(=O)c1cccs1)NCc1ccco1
2. O=C(CN1CCN(S(=O)(=O)/C=C/c2ccccc2)CC1)NC(=O)NCc1ccco1
3. Cc1c(NC(=O)CSc2cccc3cccnc23)c(=O)n(-c2ccccc2)n1C

[5.2, 54, -13.9]

Can you give me inhibition for all of these, one by one?
1. CCOC(=O)N1CCC(NC(=O)Cc2cn(C)c3ccccc23)CC1
2. Cc1[nH]n(-c2cccc(Cl)c2)c(=O)c1-c1ccc(Cl)cc1
3. CCN1CCCC1Cn1cnc2c([nH]c3cc(OC)ccc32)c1=O (configuration not stated)
4. Cc1cccn2c(=O)c3cc(C#N)c(=O)n(CCCN4CCOCC4)c3nc12
5. Cc1ccc(C(=O)NCC2CCCO2)o1 (configuration not stated)
6. CC1=CC(C)(C)Nc2ccc(OC(=O)C(Cc3ccccc3)N3C(=O)C4CCCCC4C3=O)cc21 (configuration not stated)
7. N#CC1=C(N)N(c2ccc(F)cc2)C(=O)C1
8. CC(=O)Nc1ccc(NC(=O)CN2CCCC(C)C2)c(Cl)c1 (configuration not stated)

1. -8.8
2. -13.5
3. -3.7
4. 61.4
5. -1.3
6. 18.9
7. -22.3
8. 19.8

Can you give me inhibition for all of these, one by one?
1. C=CCn1c(=S)[nH]c2nc3c(cc2c1=O)COC(C)(C)C3
2. OC(COc1cccc(OCC(O)CN2CCCC2)c1)CN1CCCC1 (configuration not stated)
3. O=C(Nc1ccc(Cl)c(Cl)c1)N1CC=C(c2ccccc2)CC1

1: 41.9; 2: 0.1; 3: 28.4

Can you give me inhibition for all of these, one by one?
1. CNC(=O)CSc1nnnn1-c1ccc(C)cc1C
2. Cc1cccn2c(=O)c3cc(C(=O)N4COCC4(C)C)n(C)c3nc12
3. COc1cccc2cc(C(C)N(CCCN3CCOCC3)C(=O)Nc3ccc(Cl)cc3)oc12 (configuration not stated)
4. CC(=O)OC(C(=O)NCCc1ccccc1)c1cccnc1 (configuration not stated)

1: 49.1; 2: 0.5; 3: 48.4; 4: 0

Can you give me inhibition for all of these, one by one?
1. CC1=NN(c2cccc(Cl)c2)C(=O)C12CC(C)=C(C)CS2 (configuration not stated)
2. CN(C)c1ccc(CNC2C3CC4CC(C3)CC2C4)cc1 (configuration not stated)

90
75.5

Can you give me inhibition for all of these, one by one?
1. O=C(C1CCCO1)N(Cc1ccccc1)c1ccccc1 (configuration not stated)
2. O=C(Nc1ccc(Cl)cc1)c1cc2nc(C3CC3)cc(C(F)(F)F)n2n1
3. COc1ccc(C)cc1-n1nnnc1SCC(=O)c1cc(C)n(Cc2ccco2)c1C
4. COC(=O)c1ccc(Oc2nc(Nc3ccc(F)cc3)nc(N3CCCC3)n2)cc1
5. CC(Oc1ccc(Cl)cc1)C(=O)OCC(=O)Nc1ncc(Cl)cc1Cl (configuration not stated)
6. CON(C)S(=O)(=O)c1ccc2c(c1)NC(=O)C1CCCN21 (configuration not stated)

1: 0; 2: -6.4; 3: 98.7; 4: 32.3; 5: 24.2; 6: 4.3

Can you give me inhibition for all of these, one by one?
1. OC(COc1ccc2c(c1)CCC2)CN1CCN(c2cccc(Cl)c2)CC1 (configuration not stated)
2. O=C(c1ccc(Cl)cc1)c1ccc(OCC(O)CN2CCCCC2)cc1 (configuration not stated)
3. CCc1nnc(NC(=O)c2nc3nccc(C)n3n2)s1
4. c1cnc(NC2C3CC4CC(C3)CC2C4)nc1 (configuration not stated)
5. N=C(N)SCc1cccc2ccccc12
6. COc1cc(/C=C2\SC(=S)N(Nc3ncc(C(F)(F)F)cc3Cl)C2=O)cc(OC)c1OC
7. CCCOc1ccc2c3c(c(=O)oc2c1OCCC)CCC3

1. 59.3
2. 8.8
3. 0.6
4. 26
5. -3.6
6. 31.7
7. 49.9
